- ASSAY NOTES: Solubility assessment in water (aqueous solubility)
- Format: physicochemical
- CONDITION CONTEXT: thermodynamic from solid, Tartrate salt
- Method: Solubility assessment: A preweighed amount of powder of a salt was treated with water to target a nominal concentration of 50 mg/mL. If a clear solution was obtained, then the solubility was noted as ≧50 mg/mL. If a suspension was obtained, it was sonicated for 1 min, followed by vortex mixing for 30 sec, and centrifuged for 5 min. The mother liquor was siphoned off and assayed for content against a standard of the free base by HPLC.

STRUCTURE AS SMILES	solubility at 1.5 min, µg/mL
CN1CCN(S(=O)(=O)c2cc(C#N)ccc2Sc2cc(Cl)cc(Cl)c2)CC1	450

Hello, the source for this data is patent US20120088769A1, in case you need it.
